Data origin, for the record: patent US8173638B2

# MEASURED_TARGET: human CB2R (Homo sapiens)
# Construct: host or cells: CHO cells
# Sequence (P34972 whole entry): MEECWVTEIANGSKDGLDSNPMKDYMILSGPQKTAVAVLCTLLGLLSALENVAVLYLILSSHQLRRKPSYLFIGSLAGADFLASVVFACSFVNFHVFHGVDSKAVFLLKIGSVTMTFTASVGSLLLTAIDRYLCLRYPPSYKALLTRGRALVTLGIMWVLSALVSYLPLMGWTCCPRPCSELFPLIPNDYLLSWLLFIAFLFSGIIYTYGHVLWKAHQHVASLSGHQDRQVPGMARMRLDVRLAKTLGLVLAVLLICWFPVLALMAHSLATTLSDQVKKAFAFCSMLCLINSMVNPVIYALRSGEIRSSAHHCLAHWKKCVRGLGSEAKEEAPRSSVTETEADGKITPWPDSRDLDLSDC
# EXPERIMENT_SUMMARY: CB2R mediated modulation of cAMP synthesis
# Type: cell-based
# REPORTED_CONDITIONS: 0.5 h; CHO cells expressing human CB2R; cAMP inhibited by 1 uM CP55940 defined as 100%; read-out: Agonist Efficacy (%)
MEASURED_METRIC: Emax (%)

# SMILES_INPUT, MEASURED
measured = [
    ("CC(C)(C)c1cc(NC(=O)N2CCCN(C(=O)N3CCSCC3)CC2)no1", 107),
    ("O=C(Nc1ccc2ccccc2c1)N1CCCN(C(=O)c2ccc(Cl)cc2)CC1", 100),
    ("O=C(Nc1ccc2ccccc2c1)N1CCCN(C(=O)c2ccc(C(F)(F)F)cc2)CC1", 96),
    ("Cc1sc(NC(=O)N2CCCN(C(=O)C3CCOCC3)CC2)nc1C(C)(C)C", 91),
]
